TARGET UNDER TEST: hTRPA1 (Homo sapiens, UniProt O75762, K186N)
Construct: expressed in transfected cells; host or cells: HEK293/TREx (Invitrogen), induced with tetracycline
Sequence (O75762 whole entry K186N): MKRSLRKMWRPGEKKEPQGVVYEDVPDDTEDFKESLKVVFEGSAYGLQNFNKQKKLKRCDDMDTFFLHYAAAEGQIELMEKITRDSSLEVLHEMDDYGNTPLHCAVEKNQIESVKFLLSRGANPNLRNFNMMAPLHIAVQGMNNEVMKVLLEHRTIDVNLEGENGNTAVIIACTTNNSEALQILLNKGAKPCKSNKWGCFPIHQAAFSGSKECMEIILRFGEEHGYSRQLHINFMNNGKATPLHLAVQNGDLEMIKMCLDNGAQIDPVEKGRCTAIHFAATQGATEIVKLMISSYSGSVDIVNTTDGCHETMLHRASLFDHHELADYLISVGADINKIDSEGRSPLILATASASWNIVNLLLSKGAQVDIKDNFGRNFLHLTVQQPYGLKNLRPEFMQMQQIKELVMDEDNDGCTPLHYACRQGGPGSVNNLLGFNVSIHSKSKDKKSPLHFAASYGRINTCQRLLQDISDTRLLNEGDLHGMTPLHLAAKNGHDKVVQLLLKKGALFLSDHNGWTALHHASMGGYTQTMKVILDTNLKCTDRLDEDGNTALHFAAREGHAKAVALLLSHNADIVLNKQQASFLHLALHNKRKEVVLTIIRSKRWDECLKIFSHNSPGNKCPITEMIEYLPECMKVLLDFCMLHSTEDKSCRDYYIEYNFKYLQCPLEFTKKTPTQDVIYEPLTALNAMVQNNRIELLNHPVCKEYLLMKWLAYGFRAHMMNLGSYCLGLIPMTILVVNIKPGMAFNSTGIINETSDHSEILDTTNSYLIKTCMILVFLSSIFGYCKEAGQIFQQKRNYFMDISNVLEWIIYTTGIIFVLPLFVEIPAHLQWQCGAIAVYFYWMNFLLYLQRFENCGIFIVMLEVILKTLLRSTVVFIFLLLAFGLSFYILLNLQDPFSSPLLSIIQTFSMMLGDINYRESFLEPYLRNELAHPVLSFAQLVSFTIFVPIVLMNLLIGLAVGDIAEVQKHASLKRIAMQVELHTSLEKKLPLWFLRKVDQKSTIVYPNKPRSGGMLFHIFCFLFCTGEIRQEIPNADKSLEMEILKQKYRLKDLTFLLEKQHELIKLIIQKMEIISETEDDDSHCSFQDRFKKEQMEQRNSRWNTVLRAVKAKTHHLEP
EXPERIMENT NOTES: TRPA1 patch clamp (perforated patch, AITC-activated current)
Assay type: cell-based
EXPERIMENTAL CONDITIONS: Table 2; inward current; read-out: hTRPA1 Patch Inwd IC50
METRIC NAME: IC50

Record request: IC50 value, item "COc1ccc(Cl)cc1NC(=O)Cn1cnc2c1c(=O)n(C)c(=O)n2C"
≤ 5 µM

Entry "CCCc1ccc(-c2csc(NC(=O)Cn3cnc4c3c(=O)n(C)c(=O)n4C)n2)cc1" has what IC50?
≤ 1 µM

State the recorded IC50 for this entry: "Cn1c(=O)c2c(ncn2CC(=O)Nc2ccc(S(N)(=O)=O)cc2)n(C)c1=O"
> 10 µM

For "Cn1c(=O)c2c(ncn2CC(=O)Nc2ccc(SC(F)F)cc2)n(C)c1=O" , what is its reported IC50?
≤ 1 µM

Reported IC50 for "CCc1ccc(-c2csc(NC(=O)Cn3cnc4c3c(=O)n(C)c(=O)n4C)n2)cc1" : what is it?
≤ 0.5 µM

So what does the record say about IC50 for Cn1c(=O)c2c(ncn2CC(=O)Nc2ccc(Br)cc2)n(C)c1=O [Compound 219] ?
≤ 5 µM

For the compound "CCCCc1ccc2nc(NC(=O)Cn3cnc4c3c(=O)n(C)c(=O)n4C)sc2c1" , what IC50 is on record?
≤ 1 µM

Fill in: IC50 of "Cn1c(=O)c2c(ncn2CC(=O)Nc2ccncc2)n(C)c1=O" is ___
> 10 µM

Which IC50 is listed for "CC(C)c1ccc(NC(=O)Cn2cnc3c2c(=O)n(C)c(=O)n3C)cc1" ?
≤ 5 µM

I'd like to know its IC50. The compound in question is "Cc1ccc(CCNC(=O)Cn2cnc3c2c(=O)n(C)c(=O)n3C)cc1"
≤ 1 µM

Look up IC50: "Cn1c(=O)c2c(ncn2CC(=O)Nc2cccc(C(F)(F)F)c2)n(C)c1=O"
≤ 10 µM

Which IC50 value is on record for "Cn1c(=O)c2c(ncn2CC(=O)Nc2ccccc2N2CCCC2)n(C)c1=O" ?
> 10 µM

Record request: IC50 value, item "COc1ccccc1CCNC(=O)Cn1cnc2c1c(=O)n(C)c(=O)n2C"
> 10 µM

What does the record list as IC50 for "Cn1c(=O)c2c(ncn2CC(=O)Nc2ccc(C#N)cc2)n(C)c1=O" ?
≤ 10 µM

I have this compound here, "Cn1c(=O)c2c(ncn2CC(=O)Nc2ccc(Cl)c(C(F)(F)F)c2)n(C)c1=O" , and I need its recorded IC50.
≤ 1 µM

# IC50 lookup, item "Cn1c(=O)c2c(ncn2CC(=O)Nc2nc(-c3ccc(Br)cc3)cs2)n(C)c1=O"
≤ 0.5 µM

Request the reported IC50 associated with "COc1ccc2nc(NC(=O)Cn3cnc4c3c(=O)n(C)c(=O)n4C)sc2c1"
≤ 10 µM

Field request: IC50 | item: "Cn1c(=O)c2c(ncn2CC(=O)Nc2nc3ccccc3s2)n(C)c1=O"
≤ 5 µM

Record request: IC50 value, item "Cn1c(=O)c2c(ncn2CC(=O)Nc2ccc3c(c2)OC2(CCCC2)O3)n(C)c1=O"
≤ 5 µM

If you can, please state the reported IC50 value of CC(C(=O)Nc1ccc(Br)cc1)n1cnc2c1c(=O)n(C)c(=O)n2C (centres unmarked) .
≤ 10 µM

Name the recorded IC50 for "Cn1c(=O)c2c(ncn2CC(=O)Nc2ccc(C(C)(C)O)cc2)n(C)c1=O" .
≤ 5 µM

Recorded IC50 of "CC(C)c1ccc(NC(=O)Cn2cnc3c2c(=O)[nH]c(=O)n3C)cc1" , please.
> 10 µM

Query: IC50; subject: CCC(C)c1ccc(NC(=O)Cn2cnc3c2c(=O)n(C)c(=O)n3C)cc1 (centres unmarked)
≤ 1 µM

For the compound shown here, "Cn1c(=O)c2c(ncn2CC(=O)Nc2ccccc2C2CCCC2)n(C)c1=O" , give the reported IC50.
≤ 10 µM

Can you look up the measured IC50 of "Cn1c(=O)c2c(ncn2CC(=O)Nc2ccc3c(c2)CCC3)n(C)c1=O" for me?
≤ 5 µM

State the recorded IC50 for this entry: "Cn1c(=O)c2c(ncn2CC(=O)Nc2ccc3c(c2)OCO3)n(C)c1=O"
≤ 10 µM

Requested field: IC50. Item: "Cn1c(=O)c2c(ncn2CC(=O)Nc2c(Cl)cccc2Cl)n(C)c1=O"
≤ 10 µM

Please give the measured IC50 for this compound: "COc1ccc(CCCNC(=O)Cn2cnc3c2c(=O)n(C)c(=O)n3C)cc1"
≤ 5 µM

Can you share its IC50? I mean this compound: "Cn1c(=O)c2c(ncn2CC(=O)Nc2nc(-c3ccccc3)cs2)n(C)c1=O"
≤ 10 µM

* * *

TARGET UNDER TEST: hTRPA1 (Homo sapiens, UniProt O75762, K186N)
Construct: expressed in transfected cells; host or cells: HEK293/TREx (Invitrogen), induced with tetracycline
EXPERIMENT NOTES: High throughput Ca2+ fluorescence (Fluo4) assay, AITC stimulation
Assay type: cell-based
EXPERIMENTAL CONDITIONS: Table 2; read-out: hTRPA1 Fluor IC50
METRIC NAME: IC50

Give recorded IC50 with hTRPA1 (Homo sapiens, UniProt O75762, K186N) for the following compound: Cn1c(=O)c2c(ncn2CC(=O)Nc2c(Cl)cccc2Cl)n(C)c1=O [Compound 305]
> 10 µM

Request body: readout IC50, system hTRPA1 (Homo sapiens, UniProt O75762, K186N), query Cc1cc(C)n(CCCNC(=O)Cn2cnc3c2c(=O)n(C)c(=O)n3C)n1 [Compound 323] . Return the value.
> 10 µM

Observed IC50 on hTRPA1 (Homo sapiens, UniProt O75762, K186N) for Cn1c(=O)c2c(ncn2CC(=O)NCc2cccc(C(F)(F)F)c2)n(C)c1=O [Compound 275] , please.
> 10 µM

What is its IC50 for hTRPA1 (Homo sapiens, UniProt O75762, K186N)? Entry: CC(=O)c1ccc(NC(=O)Cn2cnc3c2c(=O)n(C)c(=O)n3C)cc1 [Compound 360]
≤ 10 µM

Enter reported IC50 observed with hTRPA1 (Homo sapiens, UniProt O75762, K186N) for COC(=O)c1cccc(NC(=O)Cn2cnc3c2c(=O)n(C)c(=O)n3C)c1 [Compound 290]
≤ 10 µM

For the record CC(C)C(NC(=O)Cn1cnc2c1c(=O)n(C)c(=O)n2C)c1ccc2c(c1)OCCCO2 (stereo not shown) [Compound 345] , what value of IC50 is listed for hTRPA1 (Homo sapiens, UniProt O75762, K186N)?
> 10 µM

Which measured IC50 belongs to Cn1c(=O)c2c(ncn2CC(=O)Nc2ccc(Br)cc2Cl)n(C)c1=O [Compound 333] , tested on hTRPA1 (Homo sapiens, UniProt O75762, K186N)?
≤ 5 µM

* * *

For each of the molecules below, state its IC50.
TARGET UNDER TEST: hTRPA1 (Homo sapiens, UniProt O75762, K186N)
Construct: expressed in transfected cells; host or cells: HEK293/TREx (Invitrogen), induced with tetracycline
EXPERIMENT NOTES: High throughput Ca2+ fluorescence (Fluo4) assay, AITC stimulation
Assay type: cell-based
EXPERIMENTAL CONDITIONS: Table 1; read-out: hTRPA1 Fluo4 IC50

Could you tell me which IC50 is on file for CC1=C(C(=O)OC(C)(C)C)C(c2ccc(Br)cc2)NC(=O)N1 (stereo not shown) ?
> 10 µM

I have this molecule here, CCOC(=O)C1=C(c2ccccc2)NC(=S)NC1c1ccccc1Cl (stereo not shown) , and I need its recorded IC50.
> 10 µM

Dear colleague, I am looking for the recorded IC50 of the following molecule: CC1=C(C(=O)Nc2ccccc2)C(c2ccc(F)cc2)NC(=S)N1 (stereo not shown)
≥ 30 µM

Param item = CCCCOC(=O)C1=C(C)NC(=O)NC1c1ccc(C)cc1 (stereo not shown) ; retrieve measured IC50.
> 10 µM

Any idea what its IC50 is? The molecule is CCN(CC)C(=O)C1=C(C)NC(=S)NC1c1cc(OC)ccc1OC (stereo not shown)
> 10 µM

Need IC50 of CCOC(=O)C1=C(C)NC(=S)NC1c1ccc(O)c(OC)c1 (stereo not shown) , thanks.
≤ 10 µM

For the molecule CCCC1=C(C(=O)OCC)C(c2ccc(Br)cc2)NC(=O)N1 (stereo not shown) , what IC50 is on record?
≥ 30 µM

* * *

TARGET UNDER TEST: hTRPA1 (Homo sapiens, UniProt O75762, K186N)
Construct: expressed in transfected cells; host or cells: HEK293/TREx (Invitrogen), induced with tetracycline
EXPERIMENT NOTES: TRPA1 patch clamp (perforated patch, AITC-activated current)
Assay type: cell-based
EXPERIMENTAL CONDITIONS: Table 1; read-out: hTRPA1 Patch IC50
pIC50: −log10 of the molar value.
Consider the following compounds; for each one, report its pIC50.

Please state recorded pIC50 (tested on hTRPA1 (Homo sapiens, UniProt O75762, K186N)) of CCOc1ccc(C2NC(=S)NC(C)=C2C(=O)OC)cc1 (stereo not drawn)
≥ 5.00

State its pIC50 on hTRPA1 (Homo sapiens, UniProt O75762, K186N): CCOC(=O)C1=C(C)NC(=S)NC1c1cccc(O)c1 (stereo not drawn)
< 5.00

Given the entry CCOC(=O)C1=C(c2ccccc2)NC(=S)NC1c1ccc(Cl)c(Cl)c1 (stereo not drawn) , what pIC50 was observed with hTRPA1 (Homo sapiens, UniProt O75762, K186N)?
< 5.00

// provenance: patent US7671061B2
